Attribute: pEC50
# measuredTarget: THRβ LBD (His-GST-dLBT-THRβLBD) (Homo sapiens, UniProt P10828)
# Construct: made in house; host or cells: E. coli BL21 (DE3)
# Sequence (P10828 217-461 limits assumed): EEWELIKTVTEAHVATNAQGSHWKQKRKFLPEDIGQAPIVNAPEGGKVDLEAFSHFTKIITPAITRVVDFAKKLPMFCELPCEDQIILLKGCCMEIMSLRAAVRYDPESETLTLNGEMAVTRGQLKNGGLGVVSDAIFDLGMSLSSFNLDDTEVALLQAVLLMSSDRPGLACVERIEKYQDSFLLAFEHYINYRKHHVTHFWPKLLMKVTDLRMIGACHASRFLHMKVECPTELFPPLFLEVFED
# methodDescription: THR-FRET (time-resolved fluorescence resonance energy transfer) agonist activity assay, THRβ
# Type: biochemical
# measurementConditions: 24 h at room temperature
pEC50: −log10 of the molar value.

# itemSmiles, measuredTarget, pEC50
data = [
    ("C=Cc1nn(-c2cc(Cl)c(Cn3ccc(=O)c4ccccc43)c(Cl)c2)c(=O)[nH]c1=O", "THRβ LBD (His-GST-dLBT-THRβLBD) (Homo sapiens, UniProt P10828)", "6.00 to 7.00"),
    ("O=c1[nH]c(CNc2cc(Cl)c(Cn3ccc(=O)c4ccccc43)c(Cl)c2)no1", "THRβ LBD (His-GST-dLBT-THRβLBD) (Homo sapiens, UniProt P10828)", "7.00 to 7.30"),
    ("O=C(O)CC(=O)Nc1cc(Cl)c(Cn2ccc(=O)c3ccccc32)c(Cl)c1", "THRβ LBD (His-GST-dLBT-THRβLBD) (Homo sapiens, UniProt P10828)", "6.00 to 7.00"),
    ("Cc1cccc2c1c(=O)ccn2Cc1c(Br)cc(-n2ncc(=O)[nH]c2=O)cc1Br", "THRβ LBD (His-GST-dLBT-THRβLBD) (Homo sapiens, UniProt P10828)", "> 7.30"),
    ("Cc1cccc2c1c(=O)ccn2Cc1c(Cl)cc(-n2nc(C(F)F)c(=O)[nH]c2=O)cc1Br", "THRβ LBD (His-GST-dLBT-THRβLBD) (Homo sapiens, UniProt P10828)", "> 7.30"),
]

Prompt line: Entry Cc1nn(-c2cc(Br)c(Cn3ccc(=O)c4ccccc43)c(Br)c2)c(=O)[nH]c1=O has what pEC50?
Response line: 7.00 to 7.30

Prompt line: Entry O=c1[nH]c(COc2cc(Cl)c(Cn3ccc(=O)c4ccccc43)c(Cl)c2)no1 has what pEC50?
Response line: 6.00 to 7.00

Prompt line: Entry Nc1nn(-c2cc(Cl)c(Cn3ccc(=O)c4ccccc43)c(Cl)c2)c(=O)[nH]c1=O has what pEC50?
Response line: 6.00 to 7.00

Prompt line: Entry O=c1[nH]c(=O)n(-c2cc(Cl)c(Cn3ccc(=O)c4ccccc43)c(Cl)c2)nc1C(F)F has what pEC50?
Response line: > 7.30

Prompt line: Entry Cc1nn(-c2cc(Cl)c(Cn3ccc(=O)c4c(C)cccc43)c(Cl)c2)c(=O)[nH]c1=O has what pEC50?
Response line: 7.00 to 7.30

Prompt line: Entry C#Cc1nn(-c2cc(Cl)c(Cn3ccc(=O)c4ccccc43)c(Cl)c2)c(=O)[nH]c1=O has what pEC50?
Response line: 7.00 to 7.30

Prompt line: Entry O=C(Nc1cc(Cl)c(Cn2ccc(=O)c3ccccc32)c(Cl)c1)c1noc(=O)[nH]1 has what pEC50?
Response line: 6.00 to 7.00

Prompt line: Entry O=c1cnn(-c2cc(Cl)c(Cn3ccc(=O)c4ccccc43)c(Cl)c2)c(=O)[nH]1 has what pEC50?
Response line: 6.00 to 7.00

Prompt line: Entry O=c1[nH]c(=O)n(-c2cc(Cl)c(Cn3ccc(=O)c4ccccc43)c(Br)c2)nc1C(F)F has what pEC50?
Response line: > 7.30
